B1: LINE1-mini (parent)
chain: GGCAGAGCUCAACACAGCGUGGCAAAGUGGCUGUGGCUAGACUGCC

Variants of: B1
Test: self-cleavage, relative activity (ratio to wild type); higher = more cleavage; in vitro, sequencing; the parent is a self-cleaving ribozyme
Could you please report measured self-cleavage for the items listed next?

• C10G A41G = 0.05
• G5C C42U = 0.05
• G22C G44U = 0.4
• G21C G33A = 0.8
• A14G G29A = 0.78
• C15G G19A = 0.07
• G1A G44U = 0.91
• G44U C46U = 0.12

For each of the variants below, note its self-cleavage.
1. A25G G27C
2. G17U G29C
3. U9C A12G
4. G29A G36A

# output
0.16
0.39
0.04
0.11

# return self-cleavage for each item in the list
1. A11G U32G
2. G35U A39C
3. U28G C31G
4. U20G A26G
5. U34C C45G
6. A26C U38G

# output
[0.03, 0.11, 0.28, 0.43, 0.11, 0.03]

Give me self-cleavage for each of these variants, listed below.
1. C13G U34C
2. U9C C13A
3. A16U
4. C13A A14C
5. A6C G17U
6. G19A C45U
7. G1A A4G

# output
1. 0.1
2. 0.05
3. 0.15
4. 0.08
5. 0.11
6. 1.74
7. 0.31

For each listed entry, give its self-cleavage.
1. G1C U9C
2. G36C U43A
3. G19C G44U
4. G7A C15G
5. C45U C46G
6. U9C G29U

# output
0.03
0.08
0.15
0.12
0.39
0.03

Batch request: self-cleavage per item, same order as input.
1. A16G G33C
2. A24U G40A
3. G2U A16C

# output
1. 0.05
2. 0.14
3. 0.13

Batch of 7 variants: report self-cleavage for each.
1. A16U G19C
2. A11G U38A
3. C18G G35A
4. G35A C42G
5. C15G C45U
6. G17U C37U
7. C23A G40C

# output
1: 0.6; 2: 0.02; 3: 0.07; 4: 0.04; 5: 0.05; 6: 0.05; 7: 0.15

I need self-cleavage for every entry listed below, if you could help.
1. C37U G44U
2. A14C U20G
3. G7U G17C
4. A16G G44A
5. G5U C46U

# output
[0.25, 0.1, 0.07, 0.25, 0.07]

Reference source for all entries: the RNAGym collection of RNA variant scans (doi:10.7554/elife.90254)
